# measuredTarget: T1, recombinant human DLL4 (C-terminally His-tagged extracellular domain, R&D Systems) (human, UniProt Q9NR61 25-522, biotinylated in the competition ELISA)
# T1 construct: also called rhDLL4; hDLL4
# T1 sequence (Q9NR61 25-522): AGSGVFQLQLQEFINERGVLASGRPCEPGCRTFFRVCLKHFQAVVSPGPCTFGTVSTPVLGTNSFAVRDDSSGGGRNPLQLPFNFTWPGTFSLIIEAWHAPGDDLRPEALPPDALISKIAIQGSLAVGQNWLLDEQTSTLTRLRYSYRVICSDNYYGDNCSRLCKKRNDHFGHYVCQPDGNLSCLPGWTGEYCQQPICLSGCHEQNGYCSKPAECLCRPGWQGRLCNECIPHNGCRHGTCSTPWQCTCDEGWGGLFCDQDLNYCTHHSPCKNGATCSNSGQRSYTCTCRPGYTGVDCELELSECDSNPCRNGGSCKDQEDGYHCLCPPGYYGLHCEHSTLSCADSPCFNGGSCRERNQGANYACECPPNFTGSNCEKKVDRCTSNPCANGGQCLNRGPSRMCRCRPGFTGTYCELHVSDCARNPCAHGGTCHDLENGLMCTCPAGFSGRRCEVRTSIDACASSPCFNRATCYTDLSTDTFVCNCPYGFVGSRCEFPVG
# assayExplanation: SPR (Biacore), rhDLL4
propertyLabel: kon

* DLLBII129D08 (VHH, not shown: small tags and cut ends) VHH: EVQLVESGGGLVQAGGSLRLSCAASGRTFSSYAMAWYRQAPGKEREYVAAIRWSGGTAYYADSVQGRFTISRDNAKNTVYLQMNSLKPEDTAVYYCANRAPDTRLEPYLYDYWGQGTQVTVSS | 180000 M⁻¹ s⁻¹

What value of measured kon is listed for DLLBII129A03 (VHH, not shown: small tags and cut ends) VHH: EVQLVESGGGLVQAGGSLRLSCAASGRTFSSYAMAWFRQAPGKEREYVAAIRWSGGTAYYADSVQGRFTISRDNAKNTVYLQMNSLRPEDTAVYYCANRAPDTRLRPYLYDYWGQGTQVTVSS ? 210000 M⁻¹ s⁻¹
